- experimental-details: Single ascending oral dose study in healthy volunteers: plasma pharmacokinetics
- Assay type: in vivo, human
- measurement-context: human, plasma, oral, 350 mg; read-out: AUC0-48, Mean
quantity: AUC(0-t) (ng·h/mL)
Numeric only. Scale: ng·h/mL

Exercise: Bench note: what AUC(0-t) did Cn1cc(S(=O)(=O)[C@@](C)(F)C2CCN(C(=O)Nc3ccon3)CC2)c(C(F)F)n1 [Compound I] show?
Key: 65900

====

- experimental-details: Single ascending oral dose study in healthy volunteers: plasma pharmacokinetics
- Assay type: in vivo, human
- measurement-context: human, plasma, oral, 72 Hours Postdose; 350 mg + 525 mg; read-out: Plasma concentration, Mean
quantity: concentration at 72 h (ng/mL)
Numeric only. Scale: ng/mL

Exercise: Bench note: what concentration at 72 h did Cn1cc(S(=O)(=O)[C@@](C)(F)C2CCN(C(=O)Nc3ccon3)CC2)c(C(F)F)n1 show?
Key: 137

These entries and their values trace back to patent US20220265629A1.
